- System: SEM cells
- Protocol Details: cell viability relative to DMSO control; higher = less cytotoxic
- Condition Notes: HPLM + 10% dialyzed FBS; 48 h; 0.00234 µM
Experimental Readout: cell viability

- CC(N)C12CC3CC(CC(C3)C1)C2 (stereo not given): 104%
- CN[C@@H]1[C@H](O)[C@H](NC)[C@H]2O[C@@]3(O)C(=O)C[C@@H](C)O[C@H]3O[C@@H]2[C@H]1O: 125%
- CN(C)C1=CC=C(C=C1)C(C2=CC=C(C=C2)N(C)C)=C/3\C=C/C(/C=C3)=[N+](C)C: 98.3%
- NC/1=N/C2=C([NH]C=N2)C(=S)N1: 57%
- Cc1cc2c(F)c(Oc3ncnn4cc(OC[C@@H](C)O)c(C)c34)ccc2[nH]1: 108%

====

- System: SEM cells
- Protocol Details: cell viability relative to DMSO control; higher = less cytotoxic
- Condition Notes: RPMI 5 mM glucose + 10% FBS; 48 h; 0.569 µM
# strict inequality: cell viability < 80% yields 1, everything else yields -1

• CCOC(=O)C/1=C(O)/C(=O)N(CC2=CC=CC=C2)C1 = -1
• Cc1cc(C(C)(C)C)c(O)c(C)c1CC1=NCCN1 = -1
• O=c1[nH]c2ccccc2n1C1CCN(Cc2ccc(-c3nc4cc5nc[nH]c5cc4nc3-c3ccccc3)cc2)CC1 = 1
• C=CC(=O)N1CCC[C@@H](n2nc(-c3ccc(Oc4ccccc4)cc3)c3c(N)ncnc32)C1 = -1
• Cc1c(NC(=O)OC[C@@H]2COCCN2)cn2ncnc(Nc3ccc4c(cnn4Cc4cccc(F)c4)c3)c12 = -1
• N#Cc1c(NC(=O)c2cccc3ccccc23)sc2c1CCCC2 = 1
• CC[C@@]1(O)C(=O)OC\C2=C1\C=C3/N(CC4=CC5=C(C=CC(=C5CN(C)C)O)N=C34)C2=O = 1

====

- Test system: NOMO1
- Protocol Details: AUC of viability dose-response curve (% viability x log10 dose units); higher = less sensitive
- Condition Notes: HPLM + 10% dialyzed FBS; 48 h
Property: AUC of viability dose-response curve; scope: individual compounds
Experimental Readout: AUC of viability dose-response curve

• OC1=CC2=C(C(=C1)O)C(=O)\C=C(/O2)C3=CC=CC=C3 = 450
• COc1ccc(C2CNC(=O)C2)cc1OC1CCCC1 (stereo not drawn) = 465
• N#Cc1c(NC(=O)c2cccc3ccccc23)sc2c1CCCC2 = 345
• O=c1[nH]c2ccccc2n1C1CCN(Cc2ccc(-c3nc4cc5nc[nH]c5cc4nc3-c3ccccc3)cc2)CC1 = 439
• COC1=C2OC(=O)\C=C/C2=CC3=C1OC=C3 = 465
• Nc1ncnc2c1c(-c1cnc3[nH]ccc3c1)nn2C1CCCC1 = 364
• CN[C@@H]1[C@H](O)[C@H](NC)[C@H]2O[C@@]3(O)C(=O)C[C@@H](C)O[C@H]3O[C@@H]2[C@H]1O = 438
• C/C=C1\C2C=C(C)CC1(N)c1ccc(=O)[nH]c1C2 (stereo not drawn) = 463
• C=CC(=O)N1CCC[C@@H](n2nc(-c3ccc(Oc4ccccc4)cc3)c3c(N)ncnc32)C1 = 462
• CC1COC2(CCN(CC2)C/3=N/C(=O)C4=CC(=CC(=C4S3)[N+]([O-])=O)C(F)(F)F)O1 (stereo not drawn) = 471
• CCC[C@H]1C[C@H](C(=O)N[C@@H]([C@@H]2O[C@@H](SC)[C@@H](O)[C@@H](O)[C@H]2O)[C@H](C)Cl)N(C)C1 = 459
• Nc1nc(N)c2nc(CNc3ccc(C(=O)NC(CCC(=O)O)C(=O)O)cc3)cnc2n1 (stereo not drawn) = 344
• C=C[C@H]1CN2CC[C@H]1C[C@H]2[C@H](O)c1ccnc2ccc(OC)cc12 = 464
• CN1CCN(c2ccc([N+](=O)[O-])c3no[n+]([O-])c23)CC1 = 457
• CC(C)CC(=O)N[C@H](C(=O)N[C@H](C(=O)N[C@@H](CC(C)C)[C@@H](O)CC(=O)N[C@@H](C)C(=O)N[C@@H](CC(C)C)[C@@H](O)CC(=O)O)C(C)C)C(C)C = 450
• COc1cc(OC)c(/C=C/[S+](=O)([O-])Cc2ccc(OC)c(NCC(=O)[O][Na])c2)c(OC)c1 = 315
• CCOC(=O)\C1=C(/C)N\C2=C(C1C3=CC=C(C=C3)C4=CC=CC=C4)\C(=O)CC(C)(C)C2 (stereo not drawn) = 438
• Cc1cccc(Nc2nc(-c3ccncc3)cs2)c1 = 442
